MEASURED_PARAMETER: melting point (°C)

# COMPOUND, ASSAY_RESULT
records = [
    ("N#CCC(=O)N[C@H]1CC[C@H](CCN2CC=C(c3ccccc3)CC2)CC1", 203),
    ("CC(=O)CN1CCC(CCN2CCN(c3ccc(Cl)c(C(F)(F)F)c3)CC2)CC1.Cl.Cl", 263),
    ("Cc1cccc(N2CCN(CC[C@H]3CC[C@H](NC(=O)CCCC#N)CC3)CC2)c1 [Example 234]", 150),
    ("COCCCC(=O)N[C@H]1CC[C@H](CCN2CCN(c3cc(C(F)(F)F)cc(C(F)(F)F)c3)CC2)CC1 [Example 741]", 168),
    ("CC(=O)CN1CCC(CCN2CCN(c3cc(C)cc(Cl)c3)CC2)CC1.Cl.Cl", 300),
    ("Cl.Cl.O=C(CN1CCC(CCN2CCN(c3cccc(C(F)(F)F)c3)CC2)CC1)c1ccc(F)cc1", 265),
    ("CC(=O)CN1CCC(CCN2CCN(c3cccc(Cl)c3Cl)CC2)CC1 [Example 21]", 87),
    ("Cl.N#CCC(=O)N[C@H]1CC[C@H](CCN2CCN(c3ccccc3C(F)(F)F)CC2)CC1", 278),
    ("COCCCC(=O)N[C@H]1CC[C@H](CCN2CCN(c3cccc(F)c3)CC2)CC1 [Example 419]", 165),
]

###

Measured melting point values are reported for all entries that follow.

# MOLECULE, melting point / °C
rows = [
    ("CC(=O)CN1CCC(CCN2CCN(c3cccc4ccccc34)CC2)CC1.Cl.Cl", 338),
    ("CCC(O)c1cccc(N2CCN(CC[C@H]3CC[C@H](NC(=O)CC#N)CC3)CC2)c1 (stereo partly shown)", 157),
    ("N#CCCCC(=O)N[C@H]1CC[C@H](CCN2CCN(c3cc(C#N)cc(C(F)(F)F)c3)CC2)CC1", 174),
    ("N#CCCCC(=O)N[C@H]1CC[C@H](CCN2CC=C(c3cc(C(F)(F)F)ccc3F)CC2)CC1", 153),
]

###

# COMPOUND, melting point (°C)
records = [
    ("O=C(N[C@H]1CC[C@H](CCN2CCN(c3cc(F)c(F)cc3F)CC2)CC1)C1=CCCC1 [Example 523]", 199),
    ("N#CCCCC(=O)N[C@H]1CC[C@H](CCN2CCN(c3cccc(F)c3)CC2)CC1 [Example 395]", 170),
    ("COCCCC(=O)N[C@H]1CC[C@H](CCN2CCN(c3ccc(F)c(C#N)c3)CC2)CC1 [Example 661]", 197),
]

###

# COMPOUND, melting point
measured = [
    ("N#CCCCC(=O)N[C@H]1CC[C@H](CCN2CCN(c3ccc(F)c(Cl)c3F)CC2)CC1 [Example 552]", "192 °C"),
    ("CC(=O)CN1CCC(CCN2CCN(c3cccc(C(C)(F)F)c3)CC2)CC1.Cl.Cl", "256 °C"),
    ("Cc1c(N2CCN(CC[C@H]3CC[C@H](NC(=O)CC#N)CC3)CC2)cccc1C(F)(F)F [Example 178]", "181 °C"),
    ("Cc1ccc(C(F)(F)F)cc1N1CCN(CC[C@H]2CC[C@H](NC(=O)CCCC#N)CC2)CC1 [Example 388]", "153 °C"),
    ("COCCCC(=O)N[C@H]1CC[C@H](CCN2CCN(c3ccc(Cl)c(Cl)c3)CC2)CC1 [Example 502]", "175 °C"),
    ("CCOCC(=O)N[C@H]1CC[C@H](CCN2CCN(c3ccc(C)c(F)c3)CC2)CC1 [Example 539]", "124 °C"),
    ("CC(=O)CN1CCC(CCN2CCN(c3cccc(C(O)C(C)C)c3)CC2)CC1 (centres unmarked) [Example 608]", "78 °C"),
    ("O=C(N[C@H]1CC[C@H](CCN2CCN(c3cc(F)c(F)c(F)c3)CC2)CC1)C1=CCCC1 [Example 463]", "208 °C"),
]

src = patent US8802678B2
